In this section we review reported MB9798 MITC95 P. aeruginosa uM Efflux WT values for a set of compounds.
System: P. aeruginosa MB9798 (efflux+, IMP-1 plasmid)
Conditions: efflux + (MB9798) strain; imipenem at 2 μg/mL; in the presence of a class A, C, D serine β-lactamase inhibitor closely related to relebactam
recorded metric: MB9798 MITC95 P. aeruginosa uM Efflux WT (µM)

compound	quantitative readout
NC[C@@H](O)CNS(=O)(=O)c1ccc(N[C@H]2CCC[C@H]2N)c(-c2nn[nH]n2)c1S(N)(=O)=O [Example 178]	25.00
NC[C@@H](O)CNS(=O)(=O)c1ccc(N2CCN3CCOCC3C2)c(-c2nn[nH]n2)c1S(N)(=O)=O (some centres unmarked) [Example 129, 2,2,2-trifluoroacetate]	6.25
NS(=O)(=O)c1c(S(=O)(=O)N[C@@H]2CCNC2)ccc(N2CCCC(C(=O)NCCCO)C2)c1-c1nnn[nH]1 (some centres unmarked) [Example 108]	12.50
NS(=O)(=O)c1c(S(=O)(=O)N[C@@H]2CCNC2)ccc(NCCN2CCNCC2)c1-c1nnn[nH]1 [Example 75]	25.00
CN1CCOC2(C1)CN(c1ccc(S(=O)(=O)N[C@@H]3CCNC3)c(S(N)(=O)=O)c1-c1nnn[nH]1)C2 [Example 115]	12.50
NS(=O)(=O)c1c(S(=O)(=O)N[C@@H]2CCNC2)ccc(N2CC[C@H](O)C2)c1-c1nnn[nH]1 [Example 97]	6.25
NS(=O)(=O)c1c(S(=O)(=O)N[C@@H]2CCNC2)ccc(N2CCC(Oc3ccccn3)CC2)c1-c1nnn[nH]1 [Example 110]	50.00
CC1CC(CN)CCN1c1ccc(S(=O)(=O)NC[C@H](O)CN)c(S(N)(=O)=O)c1-c1nn[nH]n1 (some centres unmarked) [Example 4]	1.56
NS(=O)(=O)c1c(S(=O)(=O)N[C@@H]2CCNC2)ccc(N2CCC(S(N)(=O)=O)CC2)c1-c1nnn[nH]1 [Example 80]	1.56
NC[C@@H](O)CNS(=O)(=O)c1ccc(N2CCC3CNCC3C2)c(-c2nnn[nH]2)c1S(N)(=O)=O (some centres unmarked) [Example 141]	6.25
NCC(=O)N1CCN(c2ccc(S(=O)(=O)NC[C@H](O)CN)c(S(N)(=O)=O)c2-c2nn[nH]n2)CC1 [Example 119]	1.56
NC[C@@H](O)CNS(=O)(=O)c1ccc(N[C@H]2C[C@H](N)C2)c(-c2nnn[nH]2)c1S(N)(=O)=O [Example 192]	6.25
NC[C@@H](O)CNS(=O)(=O)c1ccc(N2CCN(C(CO)CO)CC2)c(-c2nn[nH]n2)c1S(N)(=O)=O [Example 160]	1.56
NC[C@@H](O)CNS(=O)(=O)c1ccc(N2CC[C@@H](N)[C@@H](F)C2)c(-c2nn[nH]n2)c1S(N)(=O)=O [Example 207]	1.56
NS(=O)(=O)c1c(S(=O)(=O)N[C@@H]2CCNC2)ccc(N2CCC(CF)CC2)c1-c1nnn[nH]1 [Example 89]	3.13
NC[C@@H](O)CNS(=O)(=O)c1ccc(N2CC[C@H](CN)C2)c(-c2nn[nH]n2)c1S(N)(=O)=O [Example 124]	3.13
N[C@H]1CCCN(c2ccc(S(=O)(=O)C3CNC3)c(S(N)(=O)=O)c2-c2nnn[nH]2)C1 [Example 29]	25.00
NC[C@@H](O)CNS(=O)(=O)c1ccc(N2CC[C@H](CN)[C@@H](O)C2)c(-c2nn[nH]n2)c1S(N)(=O)=O [Example 10]	3.13
NCCNS(=O)(=O)C1CCN(c2ccc(S(=O)(=O)NC[C@H](O)CN)c(S(N)(=O)=O)c2-c2nn[nH]n2)CC1 [Example 190]	0.78
NC[C@@H](O)CNS(=O)(=O)c1ccc(N2CCOC(CO)C2)c(-c2nn[nH]n2)c1S(N)(=O)=O (some centres unmarked) [Example 20]	3.13
CC1(CN)CCN(c2ccc(S(=O)(=O)NC[C@H](O)CN)c(S(N)(=O)=O)c2-c2nn[nH]n2)CC1 [Example 138]	1.56
NCCS(=O)(=O)c1ccc(N2CCCCC2)c(-c2nnn[nH]2)c1S(N)(=O)=O [Example 14]	12.50
NC[C@@H](O)CNS(=O)(=O)c1ccc(N2CCC3(CC2)CNC(=O)OC3)c(-c2nn[nH]n2)c1S(N)(=O)=O [Example 26]	6.25

* * *

Target: IMP-1 (Serratia marcescens, UniProt P52699)
Sequence (P52699 whole entry, looked up, species assumed): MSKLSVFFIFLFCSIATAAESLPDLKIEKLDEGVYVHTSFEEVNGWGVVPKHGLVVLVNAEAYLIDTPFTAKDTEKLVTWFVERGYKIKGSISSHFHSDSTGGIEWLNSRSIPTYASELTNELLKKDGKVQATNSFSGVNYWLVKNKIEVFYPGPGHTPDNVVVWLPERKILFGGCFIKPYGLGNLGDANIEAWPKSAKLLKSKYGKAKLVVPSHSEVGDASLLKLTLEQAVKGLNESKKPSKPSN
pIC50: −log10 of the molar value.
Assign class by pIC50: not lower than 9 means met; lower than 9 means not met.

molecule	target or system	assigned label
NCCNS(=O)(=O)C1CCN(c2ccc(S(=O)(=O)N[C@@H]3CCNC3)c(S(N)(=O)=O)c2-c2nn[nH]n2)CC1 [Example 167]	IMP-1 (Serratia marcescens, UniProt P52699)	met
NC[C@@H](O)CNS(=O)(=O)c1ccc(N2CCN(CCCO)CC2)c(-c2nnn[nH]2)c1S(N)(=O)=O [Example 40]	IMP-1 (Serratia marcescens, UniProt P52699)	not met
NC(=O)C1CCN(c2ccc(S(=O)(=O)N[C@@H]3CCNC3)c(S(N)(=O)=O)c2-c2nnn[nH]2)C1 (some centres unmarked) [Example 92]	IMP-1 (Serratia marcescens, UniProt P52699)	met

* * *

Target: VIM-1 (Pseudomonas aeruginosa (strain ATCC 15692 / DSM 22644 / CIP 104116 / JCM 14847 / LMG 12228 / 1C / PRS 101 / PAO1))
Assay: biochemical
Settings: CCF2-FA fluorescence assay, 2 hours at 25° C.; read-out: VIM1 IC50
Field: label. Allowed values: True (IC50 < 200 pM) or False (IC50 >= 200 pM).

compound	assigned label
NC[C@@H]1CCN(c2ccc(S(=O)(=O)N[C@@H]3CCNC3)c(S(N)(=O)=O)c2-c2nn[nH]n2)C[C@@H]1F (racemic) [Example 7]	False
NS(=O)(=O)c1c(S(=O)(=O)N[C@@H]2CCNC2)ccc(N2CCC(Oc3ccccn3)CC2)c1-c1nnn[nH]1 [Example 110]	True
NC[C@@H](O)CNS(=O)(=O)c1ccc(N2CCN(C(CO)CO)CC2)c(-c2nn[nH]n2)c1S(N)(=O)=O [Example 160]	False
NS(=O)(=O)c1c(S(=O)(=O)N[C@@H]2CCNC2)ccc(NCCN2CCNCC2)c1-c1nnn[nH]1 [Example 75]	False
N[C@H]1CCCN(c2ccc(S(=O)(=O)C3CNC3)c(S(N)(=O)=O)c2-c2nnn[nH]2)C1 [Example 29]	False
NS(=O)(=O)c1c(S(=O)(=O)N[C@@H]2CCNC2)ccc(N2CCC(c3c[nH]cn3)CC2)c1-c1nn[nH]n1 [Example 166]	True
NS(=O)(=O)c1c(S(=O)(=O)N[C@@H]2CCNC2)ccc(N2CCCCC(O)C2)c1-c1nnn[nH]1 (stereo partly shown) [Example 104]	False
NC[C@@H](O)CNS(=O)(=O)c1ccc(N2CCC[C@H](CN)C2)c(-c2nnn[nH]2)c1S(N)(=O)=O [Example 39]	False
CC1CN(c2ccc(S(=O)(=O)NC[C@H](O)CN)c(S(N)(=O)=O)c2-c2nn[nH]n2)CCN1CCO.O=C(O)C(F)(F)F.O=C(O)C(F)(F)F (stereo partly shown) [Example 176, trifluoroacetate) salt]	False
NS(=O)(=O)c1c(S(=O)(=O)N[C@@H]2CCNC2)ccc(N2CCC(CCF)CC2)c1-c1nnn[nH]1 [Example 87]	True
NS(=O)(=O)c1c(S(=O)(=O)C2CNC2)ccc(N2CCCC(CO)C2)c1-c1nnn[nH]1 (stereo not shown) [Example 57]	False
C[C@H](CN)NS(=O)(=O)c1ccc(N2CCC(CCN)CC2)c(-c2nn[nH]n2)c1S(N)(=O)=O [Example 185]	True
C[C@H](CN)NS(=O)(=O)c1ccc(N2CCC(CO)CC2)c(-c2nnn[nH]2)c1S(N)(=O)=O [Example 46]	True
NC[C@@H](O)CNS(=O)(=O)c1ccc(N2CC[C@H](CN)C2)c(-c2nn[nH]n2)c1S(N)(=O)=O [Example 124]	False
NS(=O)(=O)c1c(S(=O)(=O)N[C@@H]2CCNC2)ccc(N2CCNC2=S)c1-c1nn[nH]n1 [Example 191]	False
NCC1CCN(c2ccc(S(=O)(=O)NC[C@@H](N)CN)c(S(N)(=O)=O)c2-c2nn[nH]n2)CC1 [Example 200]	False

* * *

Tested on: Serratia marcescens expressing IMP-1 (CL5741)
Type: cell-based
Settings: with imipenem 1 μg/ml; 95% inhibition of bacterial growth
In this section we review reported CL5741 S. marcescens MITC95 IMP values for a set of compounds.
recorded metric: CL5741 S. marcescens MITC95 IMP

compound	target or system	result
NS(=O)(=O)c1c(S(=O)(=O)N[C@@H]2CCNC2)ccc(NCCN2CCNCC2)c1-c1nnn[nH]1 [Example 75]	Serratia marcescens expressing IMP-1 (CL5741)	12.50 µM
NC[C@@H](O)CNS(=O)(=O)c1ccc(N2CC[C@@H](N)[C@@H](F)C2)c(-c2nn[nH]n2)c1S(N)(=O)=O [Example 207]	Serratia marcescens expressing IMP-1 (CL5741)	0.20 µM
NS(=O)(=O)c1c(S(=O)(=O)C2CNC2)ccc(N2CCN(CCCO)CC2)c1-c1nnn[nH]1 [Example 53]	Serratia marcescens expressing IMP-1 (CL5741)	0.39 µM
NCC1=CCN(c2ccc(S(=O)(=O)NC[C@H](O)CN)c(S(N)(=O)=O)c2-c2nn[nH]n2)CC1 [Example 175]	Serratia marcescens expressing IMP-1 (CL5741)	0.78 µM
N[C@H]1CCCN(c2ccc(S(=O)(=O)C3CNC3)c(S(N)(=O)=O)c2-c2nnn[nH]2)C1 [Example 29]	Serratia marcescens expressing IMP-1 (CL5741)	6.25 µM
